Molecular target: T1, cynomolgus NKp46 (cynomolgus monkey, UniProt Q95JB9 22-306)
T1 construct: also called cyno NKp46; cynomolgus monkey NKp46
T1 sequence (Q95JB9 22-306 limits assumed): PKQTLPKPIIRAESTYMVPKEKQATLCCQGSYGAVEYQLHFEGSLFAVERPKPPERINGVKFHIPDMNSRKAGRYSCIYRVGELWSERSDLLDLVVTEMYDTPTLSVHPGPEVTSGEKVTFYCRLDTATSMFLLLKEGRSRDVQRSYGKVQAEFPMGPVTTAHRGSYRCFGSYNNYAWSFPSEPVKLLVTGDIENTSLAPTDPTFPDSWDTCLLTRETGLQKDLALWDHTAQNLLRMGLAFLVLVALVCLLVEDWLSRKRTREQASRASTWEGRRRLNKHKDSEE
Test: flow cytometry, HEK293F cells transfected with cyno NKp46
pKd: −log10 of the molar value.
PARAMETER: pKd

>>> value("NKp46-hz5D7v7-Fc* (Fc fusion, VHH-Fc fusion with an IgG1 Fc lacking a hinge (Fc*); also called NKp46-bz5D7v7-Fc*) EVQLVESGGGEVQPGGSLRLSCAASGRTFASAAMGWFRQAPGKEREFVAAISRSGDTYYADSVKGRFTISRDNAKNTVYLQMSSLRAEDTAVYYCAAVVPTYGNNIYVHSAAYNYWGQGTLVTVKPGGGGPSVFLFPPKPKDTLMISRTPEVTCVVVDVSHEDPEVKFNWYVDGVEVHNAKTKPREEQYNSTYRVVSVLTVLHQDWLNGKEYKCKVSNKALPAPIEKTISKAKGQPREPQVYTLPPSRDELTKNQVSLTCLVKGFYPSDIAVEWESNGQPENNYKTTPPVLDSDGSFFLYSKLTVDKSRWQQGNVFSCSVMHEALHNHYTQKSLSLSPG")
9.15
>>> value("NKp46-hz5D7v3-Fc* (Fc fusion, VHH-Fc fusion with an IgG1 Fc lacking a hinge (Fc*); also called NKp46-bz5D7v3-Fc*) EVQLVESGGGEVQPGGSLRLSCAASGRTFASAAMGWFRQAPGKEREFVAAISRSDDTYYAESVKGRFTISRDNAKNTVYLQMSSLRAEDTAVYYCAAVVPTYGNNIYVHSAAYNYWGQGTLVTVKPGGGGPSVFLFPPKPKDTLMISRTPEVTCVVVDVSHEDPEVKFNWYVDGVEVHNAKTKPREEQYNSTYRVVSVLTVLHQDWLNGKEYKCKVSNKALPAPIEKTISKAKGQPREPQVYTLPPSRDELTKNQVSLTCLVKGFYPSDIAVEWESNGQPENNYKTTPPVLDSDGSFFLYSKLTVDKSRWQQGNVFSCSVMHEALHNHYTQKSLSLSPG")
9.14

Hello, the source for this data is patent US20240376198A1, in case you need it.
